# assay-overview: Oral bioavailability in Sprague-Dawley rat at 20 mg/kg by LC-MS/MS analysis
# Type: ADME, organism-based
# condition: in vivo
endpoint-label: bioavailability

CSC[C@H](NC(C)=O)C(=O)NC1CCCCC1 | 52.8%

* * *

# assay-overview: Cmax in Sprague-Dawley rat at 10 mg/kg, iv or 20 mg/kg, po by LC-MS/MS analysis
# Type: ADME, organism-based
# condition: in vivo
endpoint-label: Cmax (ng/mL)

CSC[C@H](NC(C)=O)C(=O)NC1CCCCC1 | 2140

* * *

# assay-overview: Terminal half life in Sprague-Dawley rat at 20 mg/kg, po by LC-MS/MS analysis
# Format: ADME, organism-based
# condition: in vivo, read-out: beta t1/2 (converted)
endpoint-label: half-life (h)

CSC[C@H](NC(C)=O)C(=O)NC1CCCCC1 | 5.62
